Tested on: tobacco budworm (Heliothis virescens [Fabricius])
experimentalProtocol: surface-treated diet test against tobacco budworm
Assay type: in vivo
conditions: 0.25 millimoles of candidate insecticide on the surface of the diet; second instar larvae; five-day exposure; compared to the total number of insects infested
Below, each entry is listed alongside its reported Percent Mortality.
Give your result in % as a bare value.

Prompt: Look up Percent Mortality: CCn1nnc(-c2ccc(CN3CCC(C(=NNC(=O)c4ccc(C(F)(F)F)cc4)c4ccc(OC(F)(F)F)cc4)CC3)cc2)n1 [Compound 147]
Completion: 100

====

Below, each entry is listed alongside its reported Percent Growth Inhibition.
Test system: tobacco budworm (Heliothis virescens [Fabricius])
experimentalProtocol: surface-treated diet test against tobacco budworm
Assay type: in vivo
conditions: 0.25 millimoles of candidate insecticide on the surface of the diet; second instar larvae; five-day exposure; inhibition of insect weight relative to untreated controls
Give your result in % as a bare value.

Example molecules with recorded Percent Growth Inhibition:
{"columns": ["molecule", "unitOfMeasurement", "quantitativeResult"],
 "data": [
  ["[O-][N+]1(Cc2ccc(Oc3ncccn3)cc2)CCN(C(c2ccc(Cl)cc2)c2ccc(C(F)(F)F)cc2)CC1 (centres unmarked)", "%", 100],
  ["Cc1ccc(C(=O)NN=C(c2ccc(OC(F)(F)F)cc2)C2CCN(Cc3ccc(-c4nnn(C)n4)cc3)CC2)cc1", "%", 100],
  ["[O-][N+]1(Cc2ccc(Oc3ncccn3)cc2)CCN(C(c2ccc(C(F)(F)F)cc2)c2ccc(C(F)(F)F)cc2)CC1", "%", 100]
]}

# next molecule below
Prompt: Look up Percent Growth Inhibition: O=C(NN=C(c1ccc(OC(F)(F)F)cc1)C1CCN(Cc2ccc(Oc3ccccn3)cc2)CC1)c1ccc(C(F)(F)F)cc1
Completion: 100
